ASSAY_OVERVIEW: Primary qHTS for delayed death inhibitors of the malarial parasite plastid, 96 hour incubation
REPORTED_CONDITIONS: P. falciparum luciferase reporter growth; series mostly up to 28.7 µM
The campaign covered roughly 320,000 compounds. About 22,000 (6.9%) were called active. Roughly 27% stayed inconclusive and do not appear here. The call rests on the fitted dose curve; in most records, active means well fitted inhibition curve with a large enough effect; inconclusive means small, poorly fitted or top-dose-only effect, or another doubt; inactive means no such curve, though single readings can be large or run the other way. The full list was thinned out, with actives kept by preference.
A correct response names exactly one class from TRUE for active, FALSE for inactive

1) O=C(c1ccccc1)N1CCN(C(=O)c2cc3nc(-c4ccccc4)cc(C(F)(F)F)n3n2)CC1 = FALSE
2) CC(=O)c1ccccc1NC(=O)C1CC(=O)N(c2ccc3c(c2)OCCO3)C1 (centres undefined) = FALSE
3) COC(=O)c1sc(NC(=O)COC(=O)C2CCC2)c(C(=O)OC)c1C = FALSE
4) COc1ccc(N2CCN(C3CCCCC3NS(=O)(=O)c3ccccc3)CC2)cc1 (centres undefined) = FALSE
5) Cc1ccc2c(c1)C1CN(C)CCC1N2C(=O)c1ccccc1NS(=O)(=O)c1ccc(F)cc1C (centres undefined) = TRUE

Q: For COc1ccc(NC(=O)C2CCCN(S(=O)(=O)c3cccc4cccnc34)C2)cc1 (centres undefined) , which call appears in the assay record?
Result: FALSE

Q: What did the test return for "CCOc1ccc(S(=O)(=O)NCCC(=O)NCC(C)(C)N2CCOCC2)cc1" ?
Result: FALSE

Q: Please indicate how the test categorized "O=C(N/N=C/c1ccccn1)c1ccc(S(=O)(=O)N2CCCCCC2)cc1" .
Result: FALSE

Q: Outcome logged for COc1ccc(S(=O)(=O)N2CCCC(C(=O)Nc3ccc(NC(=O)c4ccccn4)cc3)C2)cc1 (centres undefined) in this assay:
Result: FALSE

====

ASSAY_OVERVIEW: Primary qHTS for delayed death inhibitors of the malarial parasite plastid, 96 hour incubation
REPORTED_CONDITIONS: P. falciparum luciferase reporter growth; series mostly up to 28.7 µM
Among all 320,000 compounds or so, about 22,000 (6.9%) were called active. Inconclusive results (about 27%) are left out. The call rests on the fitted dose curve; in most records, active means well fitted inhibition curve with a large enough effect; inconclusive means small, poorly fitted or top-dose-only effect, or another doubt; inactive means no such curve, though single readings can be large or run the other way. The sample as a whole holds a higher share of actives than the screen did.
Response enum: active, inactive

Completed entries (count: 4):
1. COc1ccccc1C(=O)Nc1ccc(OCc2nnc3c4ccccc4c(C)nn23)cc1 = active
2. COc1ccc(N=Nc2c(-c3ccc(OC)cc3)[nH]oc2=O)cc1 = inactive
3. CC(=O)NS(=O)(=O)c1ccc2c(c1)Cc1cc(S(=O)(=O)NC(C)=O)ccc1-2 = inactive
4. Cc1cc2c(cc1S(=O)(=O)CCC(=O)NCc1ccccc1)OCC(=O)N2 = inactive

Q: Just curious, what result did "Cc1ccc2nc(C)c3c(c2c1)N(c1ccccc1)CC3" get here?
Result: active

Q: Outcome? COc1ccc(N2CC(NS(=O)(=O)c3ccc4ccccc4c3)CC2=O)cc1 (centres undefined)
Result: inactive

Q: Hi, sorry to bother you, what did the test record for CC(=O)c1ccc(N2CCN(CC(O)c3ccccc3)CC2)cc1 (centres undefined) ?
Result: inactive

Q: Give the logged outcome of this assay for the following compound: "COc1ccc(C(=O)NCCNc2ccc([N+](=O)[O-])cn2)cc1"
Result: inactive

Q: Per the assay record, what outcome was assigned to "COc1ccccc1CCNC(=O)C1CCN(C(=O)/C=C/c2ccccc2)CC1" ?
Result: inactive

Q: Which outcome was entered for the compound "CCN(CC(=O)Nc1ccc2c(c1)OCO2)S(=O)(=O)c1ccccc1" in this test?
Result: inactive

Q: I would be grateful if you could indicate the recorded call for "COc1ccc(-c2ocnc2C(=O)Nc2ccc3c(c2)CCC3)cc1" .
Result: inactive

Q: Test call for this compound, please: "Nc1c(N(CCO)C(=O)C2CCCCC2)c(=O)[nH]c(=O)n1Cc1ccccc1"
Result: inactive

Q: Hi, do you know how CCC1Sc2ccc(S(=O)(=O)CCC(=O)NCc3cccs3)cc2NC1=O (centres undefined) came out in this test?
Result: inactive

Q: For "C/C(=N\NC(N)=S)c1cccnc1" , which call appears in the assay record?
Result: inactive

Q: I'd appreciate the recorded outcome for "COC(=O)c1ccc([C@@H](O)[C@H](C)C(=O)CC(=O)OC(C)(C)C)cc1" from this test.
Result: inactive

Q: Per the assay record, what outcome was assigned to "N#Cc1cccc(OC(=O)c2ccc3c(=O)n4c(nc3c2)CCC4)c1" ?
Result: inactive

Q: Dear all, I need the recorded test outcome for "CCCCN(C(=O)C1=NN(c2cc(C)ccc2C)C(=O)CC1)c1c(N)n(CCC)c(=O)[nH]c1=O" , thank you.
Result: inactive

Q: What was the test verdict on Nc1ncc(CN2CCCC(C(=O)Nc3ccc(-c4ccco4)cc3)C2)cn1 (centres undefined) ?
Result: inactive

Q: Lab log entry: "Cc1ccc(OCCNC(=O)CCNS(=O)(=O)c2ccc(Br)cc2)cc1" — outcome as called in the assay?
Result: inactive
